# log10 IC50 against Poly [ADP-ribose] polymerase 2 (Homo sapiens, UniProt Q9UGN5), merged from multiple literature sources
# Sequence (Q9UGN5 whole entry): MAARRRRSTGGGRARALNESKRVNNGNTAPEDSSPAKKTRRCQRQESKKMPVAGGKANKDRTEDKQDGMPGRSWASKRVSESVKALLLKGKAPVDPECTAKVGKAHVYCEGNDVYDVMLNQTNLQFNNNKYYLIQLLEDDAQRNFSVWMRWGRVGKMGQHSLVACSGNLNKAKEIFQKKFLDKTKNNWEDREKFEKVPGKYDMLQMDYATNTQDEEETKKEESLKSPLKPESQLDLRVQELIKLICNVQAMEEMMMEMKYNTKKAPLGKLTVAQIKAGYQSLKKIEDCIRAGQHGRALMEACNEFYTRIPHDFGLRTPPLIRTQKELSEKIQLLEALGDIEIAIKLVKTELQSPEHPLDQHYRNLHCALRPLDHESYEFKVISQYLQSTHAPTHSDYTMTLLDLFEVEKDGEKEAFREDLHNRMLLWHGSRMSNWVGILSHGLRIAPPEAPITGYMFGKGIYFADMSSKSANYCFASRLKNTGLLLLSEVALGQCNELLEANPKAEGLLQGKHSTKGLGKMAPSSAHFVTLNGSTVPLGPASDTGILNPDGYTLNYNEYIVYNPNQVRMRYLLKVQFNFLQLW
Values below are the log10 of the recorded IC50, with µM as the unit.

Record excerpt, results attached:
>>> numeric_readout("COc1cc(-c2nc3c(C(N)=O)cccc3[nH]2)cc(Br)c1OC(=O)C(C)(C)C")
0.32
>>> numeric_readout("CC(=O)c1cccc(COc2ccccc2C(N)=O)c1")
2.01
>>> numeric_readout("COc1cc(-c2nc3c(C(N)=O)cccc3[nH]2)cc(Br)c1OS(=O)(=O)c1c(C)cc(C)cc1C")
0.25
>>> numeric_readout("COc1ccc(Cl)cc1-c1cc(C)ncc1C(=O)Nc1nnc(OCC2CCN(C(=O)c3cc(Cc4n[nH]c(=O)c5ccccc45)ccc3F)CC2)s1")
-2.64
>>> numeric_readout("CC(=O)c1cccc(CCOc2ccc(F)cc2C(N)=O)c1")
1.71

Field: next compound
Prompt: Look up and report log10 IC50, with Poly [ADP-ribose] polymerase 2 (Homo sapiens, UniProt Q9UGN5) as system, for "CC(=O)c1cccc(CCOc2ccccc2C(N)=O)c1"
Response: 1.78
